Target: rhCOX-2 (Homo sapiens, UniProt P35354)
Sequence (P35354 18-604): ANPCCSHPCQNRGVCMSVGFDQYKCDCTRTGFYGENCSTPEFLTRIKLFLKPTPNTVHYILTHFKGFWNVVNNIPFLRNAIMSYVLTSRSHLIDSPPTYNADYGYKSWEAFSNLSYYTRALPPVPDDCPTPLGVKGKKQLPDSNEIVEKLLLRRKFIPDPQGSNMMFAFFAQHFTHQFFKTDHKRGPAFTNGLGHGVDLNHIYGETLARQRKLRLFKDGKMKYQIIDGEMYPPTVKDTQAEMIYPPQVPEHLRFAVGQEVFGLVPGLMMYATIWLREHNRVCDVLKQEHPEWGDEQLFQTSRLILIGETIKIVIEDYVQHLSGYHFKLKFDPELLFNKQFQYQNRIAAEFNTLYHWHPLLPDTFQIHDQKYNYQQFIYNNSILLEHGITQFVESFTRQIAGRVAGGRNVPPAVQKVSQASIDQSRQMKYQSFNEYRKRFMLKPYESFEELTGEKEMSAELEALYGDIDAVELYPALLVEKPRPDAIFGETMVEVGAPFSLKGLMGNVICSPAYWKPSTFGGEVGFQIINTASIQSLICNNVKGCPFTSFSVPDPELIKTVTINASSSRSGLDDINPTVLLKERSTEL
pIC50: −log10 of the molar value.
Criterion: pIC50 meeting or surpassing 6. Met: met. Not met: not met.

>  <compound>
CC(C)Cc1ccc(C(C)C(=O)NNC(=O)c2cc3ccccc3oc2=O)cc1 (stereo not drawn)

>  <class>
not met

$$$$
>  <compound>
CC(C)Cc1ccc(C(C)C(=O)NNC(=O)c2cc3cc(F)ccc3oc2=O)cc1 (stereo not drawn)

>  <class>
met

$$$$
>  <compound>
C/C(=N\NC(=O)C(C)c1ccc(CC(C)C)cc1)c1cc2cc(Br)cc(Br)c2oc1=O (stereo not drawn)

>  <class>
not met

$$$$

Origin of values: paper PMC11447854
